Test system: BT-549
Assay Summary: NCI tumour cell line growth inhibition, 48 h
The source made the active and inactive calls. No stated cut-off is given here; in the data, active = GI50 up to about 1.1 µM and inactive = higher.
Respond only with the outcome that fits, drawn from t (active), f (inactive)

Worked cases, answers included:
N/N=C1\C(OC(=O)Nc2ccccc2)=Nc2ccccc21 | f
COc1ccc2c3c1OC1C(=O)C=CC4(O)C(C2)NCC[C@@]314 (stereo partly drawn) | f
O=C1NC(N2CCOCC2)=N/C1=C\c1ccc(O)cc1 | f
NC(=O)NC(=O)c1cccc(NC(=O)CI)c1 | t
Cc1cccc(/N=N/c2c(C)nn(C(=O)CC(=O)Nc3ccccc3)c2C)c1 | f

Q: Call for entry c1ccc2c(Cc3c[nH]c4ccccc34)c[nH]c2c1 :
Ans: f

Q: Call for entry COc1ccc(/N=C2/C(=N/c3ccc(OC)cc3)N(c3ccccc3)C(=S)N2N=C=C2Sc3ccccc3N2C)cc1 :
Ans: f

Q: Call for entry COc1ccc(NC(C)=O)c(C(O)CCNC(C)=O)c1 (stereo not drawn) :
Ans: f

###

System: MOLT-4
Assay Summary: NCI tumour cell line growth inhibition, 48 h
Active and inactive are the calls of the source. Cut-off read from the data, not from the text of the source: active = GI50 up to about 1.1 µM and inactive = higher.
Respond only with the outcome that fits, drawn from yes (1) = active, no (0) = inactive

Worked cases, answers included:
CCC1C(C#N)=C(N)OC2=C1C(=O)CC(C)(C)C2 (stereo not drawn) | no (0)
OC(CCN1CCN(CCOC(c2ccc(F)cc2)c2ccc(F)cc2)CC1)c1ccc(Br)cc1 (stereo not drawn) | no (0)
COc1ccc(/N=C2/C(=N/c3ccc(OC)cc3)N(c3ccccc3)C(=S)N2N=C=C2Sc3ccccc3N2C)cc1 | no (0)
O=C(CCCCCCCCC(=O)N1C(=O)CC(=O)N(c2ccccc2)C1=S)N1C(=O)CC(=O)N(c2ccccc2)C1=S | no (0)
CCOS(C)(=O)=O | no (0)
CC(Br)C(=O)Nc1ccc(C(=O)O)c(O)c1 (stereo not drawn) | no (0)

Okay, now this molecule:
Q: Call for entry Cc1ccc2c(c1)C=CC(C#N)N2C(=O)Oc1ccccc1 (stereo not drawn) :
Ans: no (0)

###

System: UACC-257
Assay Summary: NCI tumour cell line growth inhibition, 48 h
Active and inactive are the calls of the source. No stated cut-off is given here; in the data, active = GI50 up to about 1.1 µM and inactive = higher.
Respond only with the outcome that fits, drawn from y = active, n = inactive

CCNc1ncnc2nn[nH]c12 | n
O=[N+]([O-])C(/C=C(\Cl)n1nnc2ccccc21)=C(/Cl)n1nnc2ccccc21 | n
c1ccc(CSC2(SCc3ccccc3)CCCCC2)cc1 | n
N#CC(/C(=N/NC(=O)C(=O)NN)C(=O)NC12CC3CC(CC(C3)C1)C2)c1ccccc1 (configuration not stated) | n
Cc1cc2c(SCc3ccccc3Cl)nc(N)nc2nc1C | n

Q: Call for entry N#Cc1c(=O)c2cc([N+](=O)[O-])ccc2n2c1[nH]c1ccccc12 :
Ans: n

Q: Call for entry COc1c2nc(CCl)[nH]c(=O)c2c(OC)c2nc(CCl)[nH]c(=O)c12 :
Ans: n

Q: Call for entry CCc1nc(N)nc(N)c1-c1ccc([N+](=O)[O-])c(Cl)c1 :
Ans: n

Q: Call for entry O=CCCCCCOCc1ccccc1 :
Ans: n

Q: Call for entry COc1ccc2c3c(coc13)C(CCC(=O)O)CC2 (configuration not stated) :
Ans: n

Q: Call for entry COc1ccc(OC(C)=O)c2c1CCC=CC2=O :
Ans: n

Q: Call for entry CCCCCCCCC[C@@H]1C[C@@H]2CCC3C(C(=O)OC)=C(C)N=C(N1)N32 (some centres not stated) :
Ans: n

Q: Call for entry O=C1N/C(=N/N=C/c2ccccc2)N/C1=C\c1c[nH]c2ccccc12 :
Ans: n

Q: Call for entry Cc1nc(-n2nc(-c3ccccc3)cc2-c2ccccc2)sc1C(/C=C/c1ccc([N+](=O)[O-])cc1)=N/NC(=O)c1ccncc1 :
Ans: n

###

Test system: UO-31
Assay Summary: NCI tumour cell line growth inhibition, 48 h
The source made the active and inactive calls. Cut-off read from the data, not from the text of the source: active = GI50 up to about 1.1 µM and inactive = higher.
Measure: GI50

CC12CC(=O)C3C(CCC4=CC(=O)CCC43C)C1CC=C2CC(=O)O (configuration not stated) | > 100 µM (inactive)
COc1ccccc1C1c2cc3c(cc2OC(N2CCOCC2)C1C)OCO3 (configuration not stated) | 15.9 µM (inactive)

CNC(=O)CN(CC(=O)NC)C(=O)NC has a reported GI50 of > 100 µM (inactive)

Cc1c(C(=O)Nc2ccc(Cl)c(C(F)(F)F)c2)oc2cc(O)ccc2/c1=N\NC(N)=S has a reported GI50 of > 100 µM (inactive)

CC(=O)NC(CCCCN(Cc1ccccc1)C(=O)N(C)N=O)C(=O)NCc1ccccc1 (configuration not stated) has a reported GI50 of 47.3 µM (inactive)

Brc1cccc(C2SCc3nc4ccccc4n32)c1 (configuration not stated) has a reported GI50 of 9.46 µM (inactive)

CC(C)(Oc1ccc(/C=C/C(=O)c2ccc(Cl)cc2)cc1)C(=O)Nc1c(Cl)cccc1Cl has a reported GI50 of 24.4 µM (inactive)

O=[N+]([O-])/C(C(Cl)=C(Cl)Cl)=C(\Nc1cccc2cccnc12)SCc1ccccc1 has a reported GI50 of 18.3 µM (inactive)

CC(=O)CCCCO has a reported GI50 of > 100 µM (inactive)

C[C@]12Cc3cn[nH]c3C(=O)C1CC[C@@H]1C2CC[C@@]2(C)C1CC[C@]2(C)O (some centres not stated) has a reported GI50 of > 100 µM (inactive)

Cc1ccc([S+](c2ccccc2)c2cc(C)ccc2C)cc1 (configuration not stated) has a reported GI50 of > 100 µM (inactive)

COC(=O)N1CCc2c(nc(N(C)CCO)[nH]c2=O)C1 has a reported GI50 of > 100 µM (inactive)

O=c1cn[nH]c(=S)n1/N=C/c1c[nH]c2ccccc12 has a reported GI50 of > 100 µM (inactive)

C[C@H](CCc1nc(C#N)c(N)o1)[C@H]1CC[C@H]2[C@@H]3[C@@H](O)CC4C[C@@H](O)CC[C@]4(C)[C@H]3C[C@@H](O)[C@]12C (some centres not stated) has a reported GI50 of 20.6 µM (inactive)

CC1=CC(=O)/C(=C/n2c(=S)[nH]c3ccccc32)C(=O)O1 has a reported GI50 of > 100 µM (inactive)

O=c1[nH]c2ccc(Cl)cc2o1 has a reported GI50 of > 100 µM (inactive)

O=C(O)CCc1nc2ccccc2[nH]1 [PROCODAZOLE] has a reported GI50 of > 100 µM (inactive)

O=[N+]([O-])/C(C(Cl)=C(Cl)Cl)=C1\Nc2ccc([N+](=O)[O-])cc2N1 has a reported GI50 of 14.1 µM (inactive)

OC(c1cc2ccccc2[nH]1)C1(c2cccnc2)SCCCS1 (configuration not stated) has a reported GI50 of 25.2 µM (inactive)

[O-][S+]1Nc2c(Cl)cc(Cl)c3c(Cl)cc(Cl)c(c23)N1 has a reported GI50 of 51.8 µM (inactive)

COC(=O)c1c(O)ccc2c1c1cc3ccccc3cc1n2Cc1cc(OC)cc(OC)c1 has a reported GI50 of 3.17 µM (inactive)

CC1(C)C(=O)C2(C#N)CCC1C2 (configuration not stated) has a reported GI50 of > 100 µM (inactive)

###

# GI50 per record follows
System: M19-MEL
Assay Summary: NCI tumour cell line growth inhibition, 48 h
The source made the active and inactive calls. No stated cut-off is given here; in the data, active = GI50 up to about 1.1 µM and inactive = higher.

Recorded results for 5 compounds are shown here.
CCOC(=O)C1=C(C)NC(=O)NC1c1ccc(OC)cc1OC (stereo unspecified) | > 100 µM (inactive)
CC(C)C1N2CCCCC2[C@@H]2c3[nH]c4ccccc4c3CCN12 (stereo partly specified) | > 100 µM (inactive)
CCN(CC)CCNC(=O)C1COc2ccc(-c3cc(=O)c4ccccc4o3)cc2O1 (stereo unspecified) | 18.3 µM (inactive)
O=c1[nH]c2cc(-c3ccccc3)nc-2nn1-c1c(Cl)cc(Cl)cc1Cl | 22.8 µM (inactive)
O=C1C=CC2(C=C1)C[C@H](NC(=O)C(F)(F)F)C(=O)O2 | 23.6 µM (inactive)

Lab note: next compound to report on.
Cc1cc2c(cc1Br)C1(C)CCC(C)C1(C)O2 (stereo unspecified) has a reported GI50 of 25.3 µM (inactive)

###

System: DU-145
Assay Summary: NCI tumour cell line growth inhibition, 48 h
Calls of active or inactive are those of the source. No stated cut-off is given here; in the data, active = GI50 up to about 1.1 µM and inactive = higher.
# GI50 per record follows

Cc1cc(Cl)nc2ccc(Cc3ccc4nc(Cl)cc(C)c4c3)cc12 has a reported GI50 of > 100 µM (inactive)

O=[N+]([O-])/C(C(Cl)=C(Cl)Cl)=C(\Nc1cccc2cccnc12)SCc1ccccc1 has a reported GI50 of 21.5 µM (inactive)

Cc1cccc(/N=N/c2c(C)nn(C(=O)CC(=O)Nc3ccccc3)c2C)c1 has a reported GI50 of > 100 µM (inactive)

O=C(c1ccc(Cl)c(Cl)c1)N(Cc1cccnc1)C(=S)N(Cc1cccnc1)C(=O)c1ccc(Cl)c(Cl)c1 has a reported GI50 of 33.2 µM (inactive)

C[P+](c1ccccc1)(c1ccc(Cl)cc1)c1ccc(Cl)cc1 has a reported GI50 of 18.4 µM (inactive)

Cc1cc2c(SCc3ccccc3Cl)nc(N)nc2nc1C has a reported GI50 of > 100 µM (inactive)
